For each record, write down the corresponding TGI.
Tested on: TK-10 renal
assayOverview: NCI tumour cell line growth inhibition, 48 h

Worked cases, TGI given:
# compound, TGI
rows = [
    ("O=C1OC([C@H](O)c2cccnc2)c2ccccc21 (some centres undefined)", "> 10 µM"),
    ("O=c1[nH]cnc2n[nH]nc12", "> 100 µM"),
    ("COc1ccc(Br)c(C(=O)N2CCc3ccccc32)c1N", "> 100 µM"),
    ("COc1cc(OC)c2c(=O)c3cccc(C)c3n(C)c2c1", "> 100 µM"),
    ("O=c1cccc(Cl)[nH]1", "> 100 µM"),
    ("C1=CC2CCC1CN2CCC1CNc2ccccc21 (centres undefined)", "> 100 µM"),
    ("Nc1ncc2ncn(C3CCC(CO)O3)c2n1 (centres undefined)", "> 100 µM"),
    ("O=C1CCC(=O)N1Sc1ccccc1", "> 100 µM"),
]

I need TGI for every entry listed below, if you could help.
1. COc1ccc(/C=C/C(=O)c2cc3c(N)c(C(=O)Nc4ccc(OC)cc4)sc3nc2C)cc1
2. O=C(Cc1nc2ccccc2[nH]c1=O)c1c[nH]c2ccccc12
3. C=C1C(=O)O[C@H]2C1C[C@H](O)[C@@]1(C)OC1CC[C@@]1(C)O[C@H]21 (some centres undefined)
4. O=C1OC(=O)C([Se]c2ccccc2)=C1[Se]c1ccccc1
5. CC(C)(O)c1cc2c(cc1C(C)(C)O)-c1ccccc1-2
6. NC1=NCN(C2OC(CO)C(O)C2O)C(=O)N1 (centres undefined)
7. CN(C)c1ccc(-c2ccc(-c3ccc(C(=N)N)cn3)o2)cc1
8. CC(=O)/C(=C\I)c1ccccc1

Output:
["> 50 µM", "34.1 µM", "36.5 µM", "> 100 µM", "> 100 µM", "1730 µM", "3.39 µM", "26.8 µM"]

Could you report TGI for every entry in the following list?
1. O=C1Cc2cn[nH]c2-c2ccccc2N1
2. Cc1ccc(S(=O)(=O)N2CCNCCN(S(=O)(=O)c3ccc(C)cc3)CCNCC2)cc1
3. CC1=CCC(C(C)(C)NC(=O)c2ccccc2)C/C1=N/O (centres undefined)

Output:
91.5 µM
44 µM
> 100 µM

----------
Kindly state TGI for each of the entries shown.
Test system: HL-60(TB) leukemia
assayOverview: NCI tumour cell line growth inhibition, 48 h

# molecule, observedValue
records = [
    ("CO/C(=N\\N=C\\c1ccc(Cl)c(Cl)c1)c1ccncc1", "> 10 µM"),
    ("CC(=O)OCC1OC(n2c3c(cc(C#N)c2=S)CCCC3)C(OC(C)=O)C(OC(C)=O)C1OC(C)=O (stereo unspecified)", "> 100 µM"),
    ("CN1CCc2ccccc2C(C(=O)c2ccc3c(c2)OCO3)C1=O (stereo unspecified)", "> 100 µM"),
    ("N#[N+]c1ccc(Nc2ccccc2)cc1", "> 50 µg/mL"),
]

Provide TGI for all items below, preserving their order.
1. COc1ccccc1C(=O)N(Cc1ccccc1)c1ccc(Cl)c(C(=O)OC(C)C)c1
2. COC(=O)[C@@](NC(=O)OCc1ccccc1)([C@H](C)O)C(F)(F)F

Output:
1. 43.6 µM
2. > 100 µM

Provide each entry's TGI from the list below.
1. CC(=O)Oc1cc2cnc3c4cc(OC(C)=O)c(OC(C)=O)cc4ccc3c2cc1OC(C)=O
2. O=C1CSC(c2ccccc2O)N1c1ccc(-n2c(-c3ccccc3)nc3ccccc3c2=O)cc1 (stereo unspecified)

Output:
19.8 µM
> 100 µM

Working through the 2 molecules below one at a time, give TGI for each.
1. Cc1ccc2ccc(-c3ccccc3)c3c2c1C(=O)c1ccccc1C3=O
2. Cc1ccc(-c2cn3c(nc4ccccc43)c(/C=C/c3ccco3)n2)cc1

Output:
> 100 µM
> 100 µM

Field: TGI. Fill in for each record below.
1. CCOC(=O)C(=CNc1ccc(F)c(F)c1)C(=O)OCC
2. Cc1ccc(S(=O)(=O)N/N=C2/CCC3(O)CC2(C)CCC2[C@H]3CC2(C)C)cc1 (stereo partly specified)
3. O=C(O)CCCCC1CCSS1 (stereo unspecified)
4. Cc1c(-c2ccccc2)[nH]c2cn[nH]c(=O)c12
5. COc1cc([C@@H]2c3cc4c(cc3[C@@H](Nc3ccc(Cl)cc3C(=O)c3ccccc3)[C@H]3COC(=O)[C@H]23)OCO4)cc(OC)c1OC
6. CCCCCCCCCCCCCCCCNC(=O)/C(=C\c1ccc(Cl)c(Cl)c1)NC(=O)c1ccccc1

Output:
1. > 100 µM
2. > 100 µM
3. > 100 µM
4. > 100 µM
5. 1.09 µM
6. 22 µM

----------
Test system: SK-MEL-5 melanoma
assayOverview: NCI tumour cell line growth inhibition, 48 h
metricName: GI50

# molecule, metricName, observedValue
rows = [
    ("COc1ccc2c(c1)C(=O)c1c-2c(OCCN(C)C)nc2cc(OC)c(OC)cc12", "GI50", "32.1 µM"),
    ("COc1cc2c3cc1Oc1c(OC)c(OC)cc4c1C(Cc1ccc(O)c(c1)Oc1ccc(cc1)CC3N(C)CC2)N(C)CC4 (centres undefined)", "GI50", "11 µM"),
    ("C[C@@H]1CCc2ncc(F)cc2[C@H]2CCCN2c2ccn3ncc(c3n2)C(=O)N1", "GI50", "> 100 µM"),
    ("COc1cccc(-c2nc3sccn3c2-c2ccnc(NCCCNS(=O)(=O)c3ccccc3)c2)c1", "GI50", "1.88 µM"),
    ("C=CC(=O)Nc1cc2c(Nc3ccc(F)c(Cl)c3)ncnc2cc1C#CC(C)(C)N1CCN(C)CC1", "GI50", "4.69 µM"),
    ("COc1ccc(-c2csc(Nc3cccc(-c4csc(C)n4)c3)n2)cc1", "GI50", "1.19 µM"),
]

# return GI50 for each item in the list
1. CC(C)OP(=O)(O)c1ncc(-c2ccc(C(F)(F)F)cc2)c(NC2CCCCCC2)n1
2. NC(=O)/C(=C/n1cnc(-c2cc(C(F)(F)F)cc(C(F)(F)F)c2)n1)c1cncnc1
3. COc1ccc(C(O)c2cc3c(N)c(C(=O)Nc4cccc(Br)c4C)sc3nc2C)cc1 (centres undefined)

Output:
["51 µM", "1.13 µM", "0.143 µM"]

----------
Tested on: SF-295 CNS
assayOverview: NCI tumour cell line growth inhibition, 48 h
Kindly return yes (1) if reported TGI is no lower than 30 µM; return no (0) if it is lower.

# compound, assignedClass
records = [
    ("O=[N+]([O-])c1cccc2nccc(NCCN3CCOCC3)c12", "no (0)"),
    ("Cc1ccc2nc(NS(=O)(=O)c3cc(C)c(Cl)cc3S)[nH]c2c1", "yes (1)"),
    ("CN(C)CCN1CCc2c([nH]c3ccccc23)C1c1cccnc1 (centres undefined)", "yes (1)"),
    ("COc1cc(-c2nn(-c3cccc(NC(=O)CCNc4ccc(N5CCOCC5)cc4)c3)cc2-c2ccncc2)ccc1Cl", "no (0)"),
    ("CCCNCCCCC(NC(C)=O)C(=O)NCc1ccccc1 (centres undefined)", "yes (1)"),
    ("CC(=O)Nc1cccc(N2C(=O)/C(=C\\c3cccc(Oc4ccccc4)c3)SC2c2ccccc2)c1 (centres undefined)", "yes (1)"),
]

# evaluate next
Input: Is it the case that Cc1ccc(S(=O)(=O)N/N=C2/CCC3(O)CC2(C)CCC2[C@H]3CC2(C)C)cc1 (some centres undefined) has TGI reaching or exceeding 30 µM?
Output: yes (1)

----------
Kindly supply the reported TGI values for the records listed here.
Test system: KM20L2 colon
assayOverview: NCI tumour cell line growth inhibition, 48 h

# molecule, metricName, observedValue
rows = [
    ("Cc1cc(C)nc(NS(=O)(=O)c2ccc(Nc3c4ccccc4nc4c(C(=O)NCCN(C)C)cccc34)cc2)n1", "TGI", "20.2 µM"),
    ("Cc1ccc(-c2cc(-c3ccccc3)c(C#N)c(=O)[nH]2)cc1", "TGI", "> 100 µM"),
]

Look at each molecule and report its TGI.
1. O=C1CCC(=O)N1Sc1ccccc1
2. CCCCCCCCC(O)c1ccc(/C=C\C(O)CCCC(=O)O)s1 (stereo unspecified)
3. CCCCC1(C(NC(=O)c2ccccc2Cl)c2ccncc2)C(=O)N(c2ccccc2)N(c2ccccc2)C1=O (stereo unspecified)
4. N#CCc1cccc(CC#N)c1Br

Output:
> 100 µM
> 100 µM
> 100 µM
> 100 µM

----------
Test system: ACHN renal
assayOverview: NCI tumour cell line growth inhibition, 48 h
metricName: TGI

# givenSmiles, TGI
measured = [
    ("CSc1nc(=O)cnn1C", "> 100 µM"),
    ("C#C[C@]1(O)CC[C@H]2[C@@H]3CCc4cc(O)ccc4[C@H]3CC[C@@]21C", "> 100 µM"),
]

Input: What value of TGI has been recorded for this entry: CCCCCCCCCCCCCCCc1nc(=S)[nH][nH]1
Output: > 100 µM

Reference source for all entries: PubChem BioAssay (NCI)
